- TARGET_OF_ASSAY: recombinant PLK1 kinase (Homo sapiens, UniProt P53350)
- Sequence (P53350 whole entry): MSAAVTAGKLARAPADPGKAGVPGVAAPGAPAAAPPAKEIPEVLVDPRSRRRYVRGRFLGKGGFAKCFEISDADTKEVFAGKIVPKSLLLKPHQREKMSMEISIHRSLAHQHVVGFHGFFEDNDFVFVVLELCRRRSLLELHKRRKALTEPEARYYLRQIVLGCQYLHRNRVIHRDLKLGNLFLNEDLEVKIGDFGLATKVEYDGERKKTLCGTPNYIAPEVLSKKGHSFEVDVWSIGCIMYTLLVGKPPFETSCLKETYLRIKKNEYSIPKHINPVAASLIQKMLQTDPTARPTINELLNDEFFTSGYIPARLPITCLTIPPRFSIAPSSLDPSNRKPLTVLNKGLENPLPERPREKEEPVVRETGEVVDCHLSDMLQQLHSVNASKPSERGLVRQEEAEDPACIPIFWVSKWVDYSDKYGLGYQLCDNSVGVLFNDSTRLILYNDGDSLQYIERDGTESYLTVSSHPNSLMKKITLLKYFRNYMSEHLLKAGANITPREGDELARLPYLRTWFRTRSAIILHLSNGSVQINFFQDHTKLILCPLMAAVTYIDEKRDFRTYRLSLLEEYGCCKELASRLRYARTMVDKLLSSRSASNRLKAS
- ASSAY_TEXT: PLK1 recombinant kinase LANCE TR-FRET assay
MEASURED_ENDPOINT: IC50

Worked cases, answers included:
{"COMPOUND": "C=CCn1c(=O)c2cnc(Nc3ccc(OCCN(C)C)cc3)nc2n1-c1cccc(C(C)(C)O)n1 [Compound 29]", "TARGET_OF_ASSAY": "recombinant PLK1 kinase (Homo sapiens, UniProt P53350)", "IC50": "161 nM"}
{"COMPOUND": "C=CCn1c(=O)c2cnc(Nc3ccc(N4CCN(C)CC4)cc3)nc2n1-c1cccc(C(C)(C)O)c1 [Compound 31]", "TARGET_OF_ASSAY": "recombinant PLK1 kinase (Homo sapiens, UniProt P53350)", "IC50": "394 nM"}
{"COMPOUND": "C=CCn1c(=O)c2cnc(Nc3ccc(CCN(C)C)cc3)nc2n1-c1cccc(C(C)(C)O)n1 [Compound 28]", "TARGET_OF_ASSAY": "recombinant PLK1 kinase (Homo sapiens, UniProt P53350)", "IC50": "270 nM"}

# context switch: different compound, same IC50
Ask | Indicate the recorded IC50 value for this compound: C=CCn1c(=O)c2cnc(Nc3ccc(N4CCN(C)CC4)cc3)nc2n1-c1cccc(C(C)(C)O)n1 [AZD1775, reference compound]
Reply | 77.6 nM

====

- ASSAY_TEXT: in vitro
- EXPERIMENTAL_SETUP: human, Daoy cells
MEASURED_ENDPOINT: EC50 at 72 h (nM)
Report as a plain number; the unit nM is understood.

Ask | Using the record for C=CCn1c(=O)c2cnc(Nc3ccc(N4CCN(C)CC4)cc3)nc2n1-c1cccc(C(C)(C)O)n1 [AZD1775, reference compound] , state its measured EC50 at 72 h.
Reply | 188
